# study-system: enzyme de conversion de l'angiotensine (ECA) (Homo sapiens)
# Sequence (P12821 30-1306): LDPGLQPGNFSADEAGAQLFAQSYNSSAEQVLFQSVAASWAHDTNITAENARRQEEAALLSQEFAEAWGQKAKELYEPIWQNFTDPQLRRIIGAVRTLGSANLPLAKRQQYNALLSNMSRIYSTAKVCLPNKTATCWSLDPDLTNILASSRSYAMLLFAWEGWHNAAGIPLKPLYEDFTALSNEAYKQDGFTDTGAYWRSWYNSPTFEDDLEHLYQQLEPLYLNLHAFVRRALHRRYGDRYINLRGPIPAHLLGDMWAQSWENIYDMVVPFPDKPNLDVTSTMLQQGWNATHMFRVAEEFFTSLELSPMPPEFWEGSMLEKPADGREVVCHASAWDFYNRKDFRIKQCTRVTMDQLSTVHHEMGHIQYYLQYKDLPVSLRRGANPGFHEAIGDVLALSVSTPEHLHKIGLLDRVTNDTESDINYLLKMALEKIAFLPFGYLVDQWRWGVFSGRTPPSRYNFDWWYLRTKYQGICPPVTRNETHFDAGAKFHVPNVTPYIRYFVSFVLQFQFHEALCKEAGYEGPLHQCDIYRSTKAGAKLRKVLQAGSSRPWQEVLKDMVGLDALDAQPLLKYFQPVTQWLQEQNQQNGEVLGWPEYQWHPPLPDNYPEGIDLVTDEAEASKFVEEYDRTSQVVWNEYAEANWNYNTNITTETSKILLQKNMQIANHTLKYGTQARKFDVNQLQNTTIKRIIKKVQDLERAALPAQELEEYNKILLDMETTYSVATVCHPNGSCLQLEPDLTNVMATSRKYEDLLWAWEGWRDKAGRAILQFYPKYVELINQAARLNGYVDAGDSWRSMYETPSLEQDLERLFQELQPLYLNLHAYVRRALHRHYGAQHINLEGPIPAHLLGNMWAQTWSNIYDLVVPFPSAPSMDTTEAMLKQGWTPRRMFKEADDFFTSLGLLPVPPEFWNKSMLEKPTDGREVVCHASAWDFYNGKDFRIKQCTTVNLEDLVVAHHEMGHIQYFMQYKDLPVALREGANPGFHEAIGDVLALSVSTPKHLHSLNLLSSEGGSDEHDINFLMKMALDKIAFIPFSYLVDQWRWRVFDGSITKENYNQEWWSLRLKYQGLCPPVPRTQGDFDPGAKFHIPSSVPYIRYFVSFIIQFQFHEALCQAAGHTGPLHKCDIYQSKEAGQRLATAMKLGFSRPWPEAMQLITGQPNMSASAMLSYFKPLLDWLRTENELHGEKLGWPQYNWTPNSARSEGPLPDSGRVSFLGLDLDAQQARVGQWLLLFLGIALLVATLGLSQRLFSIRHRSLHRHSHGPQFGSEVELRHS
# method-description: biochemical
pIC50: −log10 of the molar value.
reported-metric: pIC50

1. N[C@@H](CO)C(=O)N[C@@H](Cc1ccccc1)C(=O)O
3.29
